studySystem: Recombinant human his-tagged IGF 1R extracellular domain protein (human) (UniProt P08069)
experimentDescription: SPR, captured IgG, IGF-1R ECD-his analyte, dissociation pH 6
measurementName: kon (M⁻¹ s⁻¹)

>>> measurednumber("VRDN-02508 (antibody, V domains shown) VH: EVQLVQSGGGLVKPGGSLRLSCAASGFTFSSFHMHWVRQAPGKGLEWISVIDTRGATYYADSVKGRFTISRDNAKNSLYLQMNSLRAEDTAVYYCARLGNFYYGMDVWGQGTTVTVSS VL: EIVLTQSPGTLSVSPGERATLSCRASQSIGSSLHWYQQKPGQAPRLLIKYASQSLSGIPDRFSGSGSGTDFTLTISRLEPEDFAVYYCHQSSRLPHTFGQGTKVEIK")
53100
>>> measurednumber("VRDN-02514 (antibody, V domains shown) VH: EVQLVQSGGGLVKPGGSLRLSCAASGFTFSSFAMHWVRQAPGKGLEWISVIDTRGHTYYADSVKGRFTISRDNAKNSLYLQMNSLRAEDTAVYYCARLGNFYYGMDVWGQGTTVTVSS VL: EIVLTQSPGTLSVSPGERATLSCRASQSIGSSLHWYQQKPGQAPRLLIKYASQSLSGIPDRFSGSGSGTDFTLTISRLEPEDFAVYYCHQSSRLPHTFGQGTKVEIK")
35300
>>> measurednumber("VRDN-02540 (antibody, V domains shown) VH: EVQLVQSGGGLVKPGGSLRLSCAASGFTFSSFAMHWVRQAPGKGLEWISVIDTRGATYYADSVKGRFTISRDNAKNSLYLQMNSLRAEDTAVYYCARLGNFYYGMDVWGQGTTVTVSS VL: EIVLTQSPGTLSVSPGERATLSCRASQSIGSSLHWYQQKPGQAPRLLIKYHSQSLSGIPDRFSGSGSGTDFTLTISRLEPEDFAVYYCHQSSRLPHTFGQGTKVEIK")
15100
>>> measurednumber("VRDN-02556 (antibody, V domains shown) VH: EVQLVQSGGGLVKPGGSLRLSCAASGFTFSSFAMHWVRQAPGKGLEWISVIDTRGATYYADSVKGRFTISRDNAKNSLYLQMNSLRAEDTAVYYCARLGNFYYHMDVWGQGTTVTVSS VL: EIVLTQSPGTLSVSPGERATLSCRASQSIGSSLHWYQQKPGQAPRLLIKHASQSLSGIPDRFSGSGSGTDFTLTISRLEPEDFAVYYCHQSSRLPHTFGQGTKVEIK")
"1.72e+06"
>>> measurednumber("VRDN-02544 (antibody, V domains shown) VH: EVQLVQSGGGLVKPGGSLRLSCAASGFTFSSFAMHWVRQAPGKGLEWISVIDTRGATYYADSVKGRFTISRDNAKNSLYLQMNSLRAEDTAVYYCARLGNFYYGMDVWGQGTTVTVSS VL: EIVLTQSPGTLSVSPGERATLSCRASQSIGSSLHWYQQKPGQAPRLLIKYASQSHSGIPDRFSGSGSGTDFTLTISRLEPEDFAVYYCHQSSRLPHTFGQGTKVEIK")
36300
